- measurement protocol: duplex formation entropy ΔS (Van't Hoff fit of HRM Tm); higher = smaller entropy loss on duplex formation
- assay setup: temperature for dG: 50 °C; NaCl: 500 mM (unadjusted); backbone: PS-PO (listed strand fully phosphorothioate, complement phosphodiester)
Entries and their measured duplex formation entropy ΔS follow.
measurement name: duplex formation entropy ΔS (cal/mol/K)

sequence string	observed value
ACTCGCTCTACCTTAAT	-176
TACTTCCAACGTAGG	-160
TCTACACCGCGA	-114
GATGCCGCAGCGACCTG	-192
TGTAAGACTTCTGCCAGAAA	-231
GAGCAGAAGGGGTTGT	-184
AATGTCGAACAGCAATT	-195
AGAGCGCCCTGCTGCC	-189
TGTCGCACCCTACTA	-165
CTAAACTGTTATAGCCGG	-205
CGACATGTATGGCACAG	-224
GAACCGTTGATGATCTC	-210
CCGCTCAGAGTAGAGA	-193
AGCACGGTGGTACAACA	-205
GAGGCAGCCGCGACCTG	-199
ACGGGTCGTTCCGTG	-172
GCGGTTGGTGGCCAAC	-209
CTCGGAGGCCCCATTTA	-167
CTTTTGTGCGGGTAGC	-176
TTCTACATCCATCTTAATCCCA	-243
CTACCAGCGGCGCCGTT	-163
TGCCATGTTGAAAACC	-203
GAACTGCCACTACCAA	-185
CGTGCAGCACTACTTG	-186
AGCTGAGCCTGCCGCC	-174
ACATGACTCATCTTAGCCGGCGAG	-356
GGTGGCGTTCTT	-111
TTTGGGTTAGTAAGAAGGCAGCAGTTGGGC	-439
CCGTTGCTGCTAGG	-180
ACTGTATCGCCCTA	-144
ATAACTTACTCTCGCCT	-190
GTCATTGTGCTTTTGC	-186
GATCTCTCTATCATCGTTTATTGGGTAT	-335
CTGTAAGGCGATATGTT	-192
AATGAGGAGTGAAATGG	-201
GTGAGCAGAAGGGGTT	-184
